Measured EC50 accompanies every entry in the list below.
# tested.target: human PPARδ ligand-binding domain (Gal4 chimera) (Homo sapiens, UniProt Q03181)
# Construct: coding for the hinge region and LBD of the canonical isoform of the respective nuclear receptor; expressed in transfected cells; host or cells: HEK293T
# Sequence (Q03181 211-439 limits assumed, stated change not applied): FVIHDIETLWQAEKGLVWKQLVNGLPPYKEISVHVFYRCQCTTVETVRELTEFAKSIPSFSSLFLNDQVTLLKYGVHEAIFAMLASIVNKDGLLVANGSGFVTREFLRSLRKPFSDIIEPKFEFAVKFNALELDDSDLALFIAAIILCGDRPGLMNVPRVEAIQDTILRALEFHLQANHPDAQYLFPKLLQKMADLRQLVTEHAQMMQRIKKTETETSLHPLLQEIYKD
# assay.comment: Gal4 hybrid reporter gene assay, PPARδ
# Type: cell-based
# condition.description: EC50 [μM] PPARδ, HEK293T; mean ± SEM, n = 3
Note: unit µM is implicit; provide only the numeric part.

# compound, measurement.units, EC50
data = [
    ("O=C(O)CCc1cccc(NC(=O)c2cc(OC(F)(F)F)ccc2NC(=O)c2ccc3ccccc3c2)c1 [compound 28]", "µM", 0.1),
    ("O=C(O)CCc1cccc(NC(=O)c2ccc(OC(F)(F)F)cc2NC(=O)c2ccc3ccccc3c2)c1 [compound 23]", "µM", 0.38),
    ("O=C(O)CCc1cccc(NC(=O)c2ccccc2NC(=O)c2ccc(-c3cccs3)cc2)c1 [compound 33]", "µM", 0.64),
]

Quick note, EC50 for O=C(O)CCc1cccc(NC(=O)c2cc(O)ccc2NC(=O)c2ccc3ccccc3c2)c1 [compound 26] landed at 10
